The reported measurements were obtained from ChEMBL document CHEMBL4346707.

Assay: Apparent clearance in male Beagle dog at 0.5 mg/kg, po by LC-MS/MS analysis
Type: ADME, organism-based, Canis lupus familiaris
Conditions: in vivo, read-out: CL(app) (converted)
Experimental Readout: CL/F (mL/min/kg)
Respond numerically; units are mL/min/kg and should not be typed.

Incoming: Query (compound): `COC(=O)N(C)c1c(N)nc(-c2nn(Cc3sccc3F)c3ncccc23)nc1N` ; field requested: CL/F
Outgoing: 41

----------
Assay: Tmax in male Beagle dog at 0.5 mg/kg, po by LC-MS/MS analysis
Assay type: ADME, organism-based, Canis lupus familiaris
Conditions: in vivo
Experimental Readout: Tmax (min)
Kindly provide the numeric value in min only, without the unit symbol.

Incoming: Looking for the measured Tmax of `COC(=O)N(C)c1c(N)nc(-c2nn(Cc3sccc3F)c3ncccc23)nc1N` , can you help?
Outgoing: 36

----------
Test: Tmax in female Beagle dog at 0.5 mg/kg, po by LC-MS/MS analysis
Type: ADME, organism-based, Canis lupus familiaris
Conditions: in vivo
Experimental Readout: Tmax
Kindly write the number and append the unit.

Incoming: For the molecule shown here, `COC(=O)N(C)c1c(N)nc(-c2nn(Cc3sccc3F)c3ncccc23)nc1N` , give the reported Tmax.
Outgoing: 1.25 h

----------
Experiment: Cmax in female Beagle dog at 0.5 mg/kg, po by LC-MS/MS analysis
Assay type: ADME, organism-based, Canis lupus familiaris
Parameters: dose 0.5 mg/kg, route oral
Conditions: in vivo
Experimental Readout: Cmax (ng/mL)
The figure you give is taken to be in ng/mL; do not add the unit.

Incoming: Can you look up the measured Cmax of `COC(=O)N(C)c1c(N)nc(-c2nn(Cc3sccc3F)c3ncccc23)nc1N` for me?
Outgoing: 72.4

----------
Assay: Half life in female Beagle dog at 0.5 mg/kg, po by LC-MS/MS analysis
Type: ADME, organism-based, Canis lupus familiaris
Conditions: in vivo
Experimental Readout: half-life (h)
Please reply with the bare figure in h and do not write the unit itself.

Incoming: Requested field: half-life. Item: `COC(=O)N(C)c1c(N)nc(-c2nn(Cc3sccc3F)c3ncccc23)nc1N`
Outgoing: 1.75

----------
Test: Tmax in male Beagle dog at 4.5 mg/kg, po by LC-MS/MS analysis
Assay type: ADME, organism-based, Canis lupus familiaris
Conditions: in vivo
Experimental Readout: Tmax (h)
Numbers only; they are read as h.

Incoming: Endpoint output: Tmax of `COC(=O)N(C)c1c(N)nc(-c2nn(Cc3sccc3F)c3ncccc23)nc1N` . Value?
Outgoing: 1.55

----------
Experiment: Half life in male Beagle dog at 0.5 mg/kg, po by LC-MS/MS analysis
Type: ADME, organism-based, Canis lupus familiaris
Conditions: in vivo
Experimental Readout: half-life (min)
Your answer should be a plain number; it is taken to be in min.

Incoming: Fill blank: measured half-life of the compound `COC(=O)N(C)c1c(N)nc(-c2nn(Cc3sccc3F)c3ncccc23)nc1N` is ____.
Outgoing: 122

----------
Test: Apparent clearance in male Beagle dog at 4.5 mg/kg, po by LC-MS/MS analysis
Format: ADME, organism-based, Canis lupus familiaris
Conditions: in vivo, read-out: CL(app) (converted)
Experimental Readout: CL/F (mL/min/kg)
Just the number please, in mL/min/kg, no unit attached.

Incoming: Using the record for `COC(=O)N(C)c1c(N)nc(-c2nn(Cc3sccc3F)c3ncccc23)nc1N` , report its CL/F.
Outgoing: 103

----------
Assay: AUC (0 to infinity) in male Beagle dog at 4.5 mg/kg, po by LC-MS/MS analysis
Format: ADME, organism-based, Canis lupus familiaris
Set-up: dose 4.5 mg/kg, route oral, time infinity
Conditions: in vivo
Experimental Readout: AUC(0-inf) (ng·h/mL)
Provide only the numeric value, understood in ng·h/mL.

Incoming: Consider the molecule `COC(=O)N(C)c1c(N)nc(-c2nn(Cc3sccc3F)c3ncccc23)nc1N` and give its measured AUC(0-inf).
Outgoing: 874

----------
Reported Activity values are given for each entry in this list.
Organism: Rattus norvegicus
Assay: Stimulatory activity at sGC in Sprague-Dawley rat thoracic aorta assessed as inhibition of norepinephrine-induced contraction at 1 uM by JZ100 strain guages based isometric analysis relative to control
Set-up: scale not given: the % may be the effect or the level left
Express your answer in %, writing the number without its unit.

Worked examples, 9 molecules total:
- CC(C)OC(=O)N(C)c1c(N)nc(-c2nn(Cc3ccc(F)s3)c3ncccc23)nc1N: 38.1
- COC(=O)N(C)c1c(N)nc(-c2nn(Cc3cccs3)c3ncccc23)nc1N: 45.1
- CCN(C(=O)OC)c1c(N)nc(-c2nn(Cc3sccc3F)c3ncccc23)nc1N: 85.4
- CC(C)OC(=O)Nc1c(N)nc(-c2nn(Cc3sccc3F)c3ncccc23)nc1N: 42.3
- CC(C)OC(=O)Nc1c(N)nc(-c2nn(Cc3cccnc3F)c3ncccc23)nc1N: 12.5
- COC(=O)Nc1c(N)nc(-c2nn(Cc3sccc3F)c3ncccc23)nc1N: 14.3
- CCOC(=O)N(C)c1c(N)nc(-c2nn(Cc3cncc(C)c3)c3ncccc23)nc1N: 47.4
- CC(C)OC(=O)N(C)c1c(N)nc(-c2nn(Cc3cccnc3F)c3ncccc23)nc1N: 1.9
- CCN(C(=O)OC(C)C)c1c(N)nc(-c2nn(Cc3cccnc3F)c3ncccc23)nc1N: 9

Below: the item to evaluate.
Incoming: Query (molecule): `CCOC(=O)Nc1c(N)nc(-c2nn(Cc3sccc3F)c3ncccc23)nc1N` ; field requested: Activity
Outgoing: 27.3

----------
Test: Oral bioavailability (0 to infinity) in male Beagle dog at 0.5 mg/kg by LC-MS/MS analysis
Assay type: ADME, organism-based, Canis lupus familiaris
Details: in vivo
Experimental Readout: bioavailability (%)
Write the answer as a number in %, unit excluded.

Incoming: Give the measured bioavailability of `COC(=O)N(C)c1c(N)nc(-c2nn(Cc3sccc3F)c3ncccc23)nc1N` .
Outgoing: 80

----------
Test system: Heart
Test: Cardioprotective activity in Langendorff perfused Sprague-Dawley rat heart assessed as reduction of coronary perfusion pressure
Assay type: functional, tissue-based
Experimental Readout: pEC50
// pEC50 is dimensionless: -log10 of concentration (M)

Recorded results for 3 molecules are shown here.
* CC(C)OC(=O)N(C)c1c(N)nc(-c2nn(Cc3sccc3F)c3ncccc23)nc1N | 6.96
* CCN(C(=O)OC)c1c(N)nc(-c2nn(Cc3sccc3F)c3ncccc23)nc1N | 6.74
* COC(=O)N(C)c1c(N)nc(-c2nn(Cc3ccccc3F)c3ncccc23)nc1N | 6.57

Now turn to the next molecule.
Incoming: pEC50 lookup needed for `COC(=O)N(C)c1c(N)nc(-c2nn(Cc3sccc3F)c3ncccc23)nc1N` , thanks.
Outgoing: 7.07

----------
Assay: AUC (0 to infinity) in male Beagle dog at 1.5 mg/kg, po by LC-MS/MS analysis
Type: ADME, organism-based, Canis lupus familiaris
Design: dose 1.5 mg/kg, route oral, time infinity
Conditions: in vivo
Experimental Readout: AUC(0-inf) (ng·h/mL)
Number in ng·h/mL, nothing else.

Incoming: Suppose we examine the molecule `COC(=O)N(C)c1c(N)nc(-c2nn(Cc3sccc3F)c3ncccc23)nc1N` ; what AUC(0-inf) value has been reported?
Outgoing: 373

----------
Test: AUC (0 to infinity) in female Beagle dog at 0.5 mg/kg, po by LC-MS/MS analysis
Format: ADME, organism-based, Canis lupus familiaris
Parameters: dose 0.5 mg/kg, route oral, time infinity
Details: in vivo
Experimental Readout: AUC(0-inf) (ng·h/mL)
Numbers only; they are read as ng·h/mL.

Incoming: Endpoint output: AUC(0-inf) of `COC(=O)N(C)c1c(N)nc(-c2nn(Cc3sccc3F)c3ncccc23)nc1N` . Value?
Outgoing: 198

----------
Experiment: Half life in male Beagle dog at 1.5 mg/kg, po by LC-MS/MS analysis
Assay type: ADME, organism-based, Canis lupus familiaris
Settings: in vivo
Experimental Readout: half-life (min)
Quick note: give the figure in min, leave out the unit.

Incoming: Look up half-life: `COC(=O)N(C)c1c(N)nc(-c2nn(Cc3sccc3F)c3ncccc23)nc1N`
Outgoing: 194

----------
Test: Cmax in male Beagle dog at 1.5 mg/kg, po by LC-MS/MS analysis
Assay type: ADME, organism-based, Canis lupus familiaris
Design: dose 1.5 mg/kg, route oral
Details: in vivo
Experimental Readout: Cmax (ng/mL)
Dear colleague, please return just the value in ng/mL, with no unit written.

Incoming: Cmax lookup needed for `COC(=O)N(C)c1c(N)nc(-c2nn(Cc3sccc3F)c3ncccc23)nc1N` , thanks.
Outgoing: 106

----------
Species on record: Rattus norvegicus
Test: Stimulatory activity at sGC in Sprague-Dawley rat thoracic aorta assessed as inhibition of norepinephrine-induced contraction at 1 uM by JZ100 strain guages based isometric analysis relative to control
Set-up: scale not given: the % may be the effect or the level left
The label fulfilled is reserved for Activity strictly under 40%; not fulfilled covers values equal to or above it.

For orientation, consider the following solved cases.
• COC(=O)N(C)c1c(N)nc(-c2nn(Cc3cccnc3F)c3ncccc23)nc1N = fulfilled
• CC(C)OC(=O)Nc1c(N)nc(-c2nn(Cc3ccc(F)s3)c3ncccc23)nc1N = fulfilled
• COC(=O)N(C)c1c(N)nc(-c2nn(Cc3cncc(C)c3)c3ncccc23)nc1N = fulfilled
• CCOC(=O)N(CC)c1c(N)nc(-c2nn(Cc3sccc3F)c3ncccc23)nc1N = not fulfilled
• COC(=O)Nc1c(N)nc(-c2nn(Cc3ccc(F)s3)c3ncccc23)nc1N = fulfilled
• CCOC(=O)N(CC)c1c(N)nc(-c2nn(Cc3ccc(F)s3)c3ncccc23)nc1N = not fulfilled

Incoming: Here's an entry: `CCN(C(=O)OC)c1c(N)nc(-c2nn(Cc3ccc(F)s3)c3ncccc23)nc1N` . Is its Activity below 40%?
Outgoing: not fulfilled

Incoming: Try this molecule next: `CCOC(=O)N(C)c1c(N)nc(-c2nn(Cc3sccc3F)c3ncccc23)nc1N`
Outgoing: not fulfilled

Incoming: Then this molecule: `CCN(C(=O)OC)c1c(N)nc(-c2nn(Cc3cncc(C)c3)c3ncccc23)nc1N`
Outgoing: fulfilled

Incoming: Item: `CCN(C(=O)OC(C)C)c1c(N)nc(-c2nn(Cc3sccc3F)c3ncccc23)nc1N`
Outgoing: not fulfilled
